- System: E. coli DH5α/pLBII
- assay-text: Broth microdilution MIC assay, empty vector control strain
- Format: cell-based
- reported-conditions: Escherichia coli, read-out: E. coli DH5α/pLBII Microbiological Activity (MIC)
We begin with a simple list: items and their reported MIC.

// worked examples, MIC included
> print(dat)
                                   compound       assay.value
1  CCCN1CCN(C(=O)NC(C(=O)N[C@H]2Cc3cccc(C(=O)O)c3OB2O)c2csc(N)n2)C(=O)C1=O (stereo partly drawn)     8 to 16 µg/mL
2  CS(=O)(=O)N1CCN(C(=O)NC(C(=O)N[C@H]2Cc3cccc(C(=O)O)c3OB2O)c2csc(N)n2)C1=O (stereo partly drawn)    32 to 64 µg/mL
3  Cc1cc(C)n2c1C=C1C=CC(CCC(=O)NCCON=C(C(=O)N[C@H]3Cc4cccc(C(=O)O)c4OB3O)c3csc(N)n3)=[N+]1[B-]2(F)F       > 512 µg/mL
4  Nc1nc(C(NS(=O)(=O)c2cccnc2)C(=O)N[C@H]2Cc3cccc(C(=O)O)c3OB2O)cs1 (stereo partly drawn)  128 to 256 µg/mL
5  CCN1CCN(C(=O)N[C@@H](C(=O)N[C@H]2Cc3cccc(C(=O)O)c3OB2O)[C@H](C)O)C(=O)C1=O     8 to 16 µg/mL

Specify MIC for CCC(O)[C@H](NC(=O)N1CCN(CC)C(=O)C1=O)C(=O)N[C@H]1Cc2cccc(C(=O)O)c2OB1O (single isomer, unassigned) and stop.
128 to 256 µg/mL

---

- Tested on: hyper-permeable E. coli 901C
- assay-text: Broth microdilution MIC assay
- Assay type: cell-based
- reported-conditions: Escherichia coli, read-out: E. coli 901C MIC
- Procedure: To determine the ability of test compounds to potentiate the inhibition of the growth of bacterial strains, classic cell based broth microdilution MIC assays were employed. […] After the dilution plates are set up the growing cultures are then diluted in a cuvette containing MH II broth and the optical density is measured at 600 nm. […] The MIC is read visually as the lowest concentration well with no bacterial growth.
measure-name: MIC

Use the examples below as a reference point.
> print(dat)
                                   compound  assay.value
1  Nc1nc(C(NC(=O)N2CCN(CCF)C(=O)C2=O)C(=O)N[C@H]2Cc3cccc(C(=O)O)c3OB2O)cs1 (stereo partly shown)   < 64 µg/mL
2  N[C@@H](C(=O)N[C@H]1Cc2cccc(C(=O)O)c2OB1O)c1ccc(O)cc1  > 128 µg/mL
3  CCCCCCCN1CCN(C(=O)NC(C(=O)N[C@H]2Cc3cccc(C(=O)O)c3OB2O)c2csc(N)n2)C(=O)C1=O (stereo partly shown)   < 64 µg/mL
4  N[C@H](Cc1ccccc1)C(=O)N[C@H]1Cc2cccc(C(=O)O)c2OB1O  > 128 µg/mL
5  CN(C)S(=O)(=O)NC(C(=O)N[C@H]1Cc2cccc(C(=O)O)c2OB1O)c1csc(N)n1 (stereo partly shown)   < 64 µg/mL

Given CCN1CCN(C(=O)N[C@H](CCC(N)=O)C(=O)N[C@H]2Cc3cccc(C(=O)O)c3OB2O)C(=O)C1=O , respond with its MIC.
< 64 µg/mL

Answer with the recorded MIC for the compound listed here: CCNC(=O)NC(C(=O)N[C@H]1Cc2cccc(C(=O)O)c2OB1O)c1csc(N)n1 (stereo partly shown)
< 64 µg/mL

Values from patent US11332485B2
